Provide the recorded percent of complexes for the entries that follow.
Target: anti-CC49 variable region antibodies in the serum of patient three
Assay: HPLC, 125I-HuCC49 + serum + 5 Tg competitor; fewer complexes = competitor bound
Your answer should be a plain number; it is taken to be in %.

IN: Request the reported percent of complexes associated with humanized monoclonal antibody HuCC49 (parental HuCC49) (antibody, V domains shown) VH: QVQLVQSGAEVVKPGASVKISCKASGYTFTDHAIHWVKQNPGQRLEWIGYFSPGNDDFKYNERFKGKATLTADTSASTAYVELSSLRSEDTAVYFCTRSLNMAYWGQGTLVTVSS VL: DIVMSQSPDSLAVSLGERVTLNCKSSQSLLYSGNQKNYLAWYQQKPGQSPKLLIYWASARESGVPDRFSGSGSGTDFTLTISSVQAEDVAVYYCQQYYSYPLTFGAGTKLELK
OUT: 0

IN: Also HuCC49 CDR variant L-2 (antibody, V domains shown) VH: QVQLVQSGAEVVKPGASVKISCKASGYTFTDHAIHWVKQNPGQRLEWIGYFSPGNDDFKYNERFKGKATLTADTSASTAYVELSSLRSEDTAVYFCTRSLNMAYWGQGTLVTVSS VL: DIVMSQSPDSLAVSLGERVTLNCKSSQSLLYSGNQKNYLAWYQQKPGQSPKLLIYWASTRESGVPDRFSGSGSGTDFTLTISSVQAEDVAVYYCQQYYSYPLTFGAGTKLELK ?
OUT: 3.4

IN: Also HuCC49 CDR variant L-1 (antibody, V domains shown) VH: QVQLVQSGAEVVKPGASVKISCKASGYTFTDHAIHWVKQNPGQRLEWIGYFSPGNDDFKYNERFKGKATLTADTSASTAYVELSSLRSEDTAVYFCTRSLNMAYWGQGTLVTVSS VL: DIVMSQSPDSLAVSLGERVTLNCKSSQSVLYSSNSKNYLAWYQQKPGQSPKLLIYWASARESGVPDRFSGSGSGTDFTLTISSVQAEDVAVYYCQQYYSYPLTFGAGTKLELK ?
OUT: 12.2
